# system: LNX1_1, Q8TBB1
# Sequence (Q8TBB1 261-371): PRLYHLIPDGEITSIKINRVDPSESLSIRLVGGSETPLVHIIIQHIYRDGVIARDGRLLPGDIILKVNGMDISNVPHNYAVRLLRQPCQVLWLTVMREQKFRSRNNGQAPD
# measurement.description: holdup assay
# Set-up: key: below the threshold = too weak to quantify, mostly under pKd 3.1 to 4
# measurement.conditions: plain residues with an end cap or a label only (N-terminal biotin on a linker: ttds)
attribute.measured: pKd

Solved entries (count: 6):
SHSSKGETAV [FZD7, O75084] :: below the threshold
SGGKRKETLV [NET1, Q7Z628] :: below the threshold
SSIDLWETAL [SLC15A5, A6NIM6] :: 3.97
NPDALPETLV [ARHGAP6, O43182] :: 3.83
FVETQHQTQV [FAT3, Q8TDW7] :: below the threshold
PFRSRSPSEV [GPR6, P46095] :: below the threshold

Data request: Give the reported value of pKd for this record: PSRDRKETSI [RALBP1, Q15311]
Data returned: below the threshold
